Measured polymerase ribozyme fitness (log ratio) of individual entries
B1: TPR 5TU (parent)
chain: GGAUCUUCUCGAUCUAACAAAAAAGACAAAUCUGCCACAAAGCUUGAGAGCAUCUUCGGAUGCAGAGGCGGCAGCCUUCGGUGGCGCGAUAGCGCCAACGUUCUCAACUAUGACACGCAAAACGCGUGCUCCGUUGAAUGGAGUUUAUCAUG

Variants of: B1
ASSAY NAME: polymerase ribozyme fitness, log enrichment relative to wild type (log ratio); higher = more active; in vitro selection for triplet polymerase activity
Fewer inactive variants are shown than the library holds.
Would you mind answering with just the numeric figure?

Previously resolved entries follow.
1. A17U C57U G136A    0.435
2. U13G G46C C54U G92U    -3.24
3. C18G C95U    0.206
4. A122U U146C    -0.714

Task item: For C54A A106C , what is its reported polymerase ribozyme fitness (log ratio)?
Reply: -2.06

Task item: U61A C96A G126A C131U ?
Reply: -2.54

Task item: A52G G84U U144G ?
Reply: -1.56

Task item: U33G G58U A91C G143U ?
Reply: -3.87

Task item: C51U C96G U144A ?
Reply: -1.45

Task item: A3G A20C U53A G81C A121G ?
Reply: -1.59

Task item: A19U G81A ?
Reply: -0.839

Task item: G59A G71A G117C ?
Reply: -3.56

Values were extracted from the RNAGym collection of RNA variant scans (doi:10.1073/pnas.2313332121).
